protocol-description: small molecules captured by biotinylated probe aFGF10 – biochemical, small-molecule microarray, fluorescence 635/667, stem cell growth factor project, primary screen (AID 1071);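 also: score merges 667 nm spot intensity and signal to noise from triplicate slides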
details: higher = more signal
measured-metric: composite z-score

Record excerpt, results attached:
compound	composite z-score
C=C(C(=O)CC[C@H](OC(C)=O)c1ccccc1OCCO)C(C)C	0.317
CCCNC(=O)[C@@]1(Sc2ccc(C)cc2)CC(=O)N(Cc2ccccc2C(F)(F)F)[C@@H]1c1ccc(CO)cc1I	-0.0686

Okay, here is my list. What is composite z-score for each of these?
1. CS(=O)(=O)CCOC(=O)C1=CC(CCCO)=CC(c2ccc(CN3CCCC3)cc2)N(Cc2cccc(OC(F)(F)F)c2)C=C1C(=O)OCCS(C)(=O)=O (configuration not stated)
2. COCCOC(=O)N1C(=O)[C@@]2(c3cc(C#CC4=CCCCC4)ccc31)[C@H](C(N)=O)[C@H]1C(=O)O[C@H](c3ccccc3)[C@H](c3ccccc3)N1[C@@H]2c1ccc(O)cc1
3. COC(=O)C(CC#Cc1ccc2c(c1)[C@]1(C(=O)N2)[C@H](c2ccccc2OCCO)N2[C@H](c3ccccc3)[C@H](c3ccccc3)OC(=O)[C@H]2[C@@H]1C(N)=O)C(=O)OC

A.
1. 0.952
2. 0.683
3. 0.774

Okay, here is my list. What is composite z-score for each of these?
1. CC(C)NC(=O)[C@@H]1c2ccccc2C(=O)N(C(C)C)[C@H]1c1ccc(CO)cc1
2. COc1ccc(NN2C(C(O)c3ccc(N(C)C)cc3)C=CC3C(=O)N(C4CCCCC4)C(=O)C32)cc1 (configuration not stated)

A.
-0.057
1.01

----------
protocol-description: COS7 lysate on small-molecule microarray, probe aHis, 635 nm (AID 1123);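 also: z-score combines 667nm fluorescence intensity with signal-to-noise per printed compound spot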
details: COS7 cell lysate, fluorescence, higher = more signal
Outcome: fulfilled for composite z-score of at least 2; not fulfilled for anything lower.

Q. Does the reported composite z-score for COC(=O)c1c2oc(c1C(=O)OC)C(=O)N[C@@H](C(C)C)Cn1cc(nn1)C1(CCCCC1)NC(=O)N[C@H](CO)CC2 fall at or above the 2 mark?
A. not fulfilled

Q. Does the reported composite z-score for C[N+](C)(C)CCCC[C@@H]1NC(=O)[C@@H]2C[C@H](C(=O)NCCCCCCNC(=O)CS)[C@H](c3ccc(O)cc3)N2C1=O fall at or above the 2 mark?
A. not fulfilled

Q. Does the reported composite z-score for COCCOC(=O)N1C(=O)[C@@]2(c3cc(C#CC4=CCCCC4)ccc31)[C@H](c1ccc(OCCO)cc1)N1[C@H](c3ccccc3)[C@H](c3ccccc3)OC(=O)[C@H]1[C@@H]2C(=O)N1CCc2cc(OC)c(OC)cc2C1 fall at or above the 2 mark?
A. not fulfilled

Q. Does the reported composite z-score for CN(C)C(=O)[C@]1(Cc2ccccc2)N=C(c2ccc(OCCCO)cc2)O[C@@H]1c1ccccc1N=[N+]=[N-] fall at or above the 2 mark?
A. fulfilled

Q. Does the reported composite z-score for OCC1C=C(/C=C/c2ccccc2)CN1Cc1ccccc1Br (stereo not given) fall at or above the 2 mark?
A. not fulfilled

Q. Does the reported composite z-score for C[N+](C)(C)CCCC[C@@H]1NC(=O)[C@@H]2C[C@H](C(=O)NCCCCCN)[C@H](c3ccc(O)cc3)N2C1=O fall at or above the 2 mark?
A. not fulfilled

Q. Does the reported composite z-score for O=C1O[C@@H](c2ccccc2)[C@@H](c2ccccc2)N2[C@@H](c3ccc(OCCO)cc3)[C@]3(C(=O)Nc4ccc(C#CC5=CCCCC5)cc43)[C@@H](C(=O)N3CCCCCCC3)[C@H]12 fall at or above the 2 mark?
A. fulfilled

Q. Does the reported composite z-score for [N-]=[N+]=NCc1ccccc1[C@@H]1OC(c2ccc(OCCCO)cc2)=N[C@]1(CCS(=O)(=O)c1ccccc1)C(=O)N1CCOCC1 fall at or above the 2 mark?
A. fulfilled

Q. Does the reported composite z-score for COc1ccccc1CN1C(=O)c2ccccc2[C@@]2(Cc3ccccc3N(CCCN(C)C)C2=O)[C@@H]1c1ccc(CO)cc1 fall at or above the 2 mark?
A. not fulfilled

Q. Does the reported composite z-score for CC(C)(C)OC(=O)CC[C@]1(C(=O)NCCN2CCOCC2)COC(c2ccc(OCCCO)cc2)=N1 fall at or above the 2 mark?
A. fulfilled

Q. Does the reported composite z-score for CCCCCCCCCCC(O)C1C=CC2C(=O)NC(=O)C2N1Nc1ccc(Cl)cc1Cl (stereo not given) fall at or above the 2 mark?
A. not fulfilled

Q. Does the reported composite z-score for O=C1OCC=C[C@H]2OC34C=CCN(Cn5nnc6ccccc65)C(=O)[C@H]3N(CCCCCO)C(=O)[C@@H]4[C@@H]12 (stereo not given in full) fall at or above the 2 mark?
A. not fulfilled

Q. Does the reported composite z-score for COCC(=C=CC[C@@H](O)c1ccc(OCCO)cc1)C[C@@H](O)c1ccccn1 fall at or above the 2 mark?
A. not fulfilled

Q. Does the reported composite z-score for C#CCN1[C@H](/C=C/C2CC2)[C@H](Cc2ccccc2)OC(=O)[C@@H]1Cc1ccccc1 fall at or above the 2 mark?
A. not fulfilled

Q. Does the reported composite z-score for O=C1O[C@H](c2ccccc2)[C@H](c2ccccc2)N2[C@H]1[C@@H](C(=O)NC[C@H](O)c1ccccc1)[C@]1(C(=O)Nc3ccccc31)[C@H]2c1ccc(O)cc1 fall at or above the 2 mark?
A. not fulfilled

----------
System: Wnt5a (protein binding on small-molecule microarray)
protocol-description: small molecules binding Wnt5a protein – biophysical, small-molecule microarray, 635/667 nm fluorescence, primary screen (AID 1142);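 also: fluorescence read at 667 nm with signal to noise per printed feature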
details: 635 nm fluorescence, higher = more signal
Outcome: Satisfied for composite z-score of at least 0.3; Not satisfied for anything lower.

Study these solved cases before continuing.
compound	system	class-label
CCCCN1CC=CC23O[C@@H]4/C=C\CCCOC(=O)C4[C@H]2C(=O)N(CCCCCO)[C@@H]3C1=O (stereo partly specified)	Wnt5a (protein binding on small-molecule microarray)	Not satisfied
CC(C)(C)OC(=O)CC[C@]1(C(N)=O)N=C(c2ccc(OCCCO)cc2)O[C@H]1c1ccccc1	Wnt5a (protein binding on small-molecule microarray)	Satisfied
CCCC(=O)N(CCc1c[nH]c2ccccc12)[C@@H]1CC(C(=O)NCCO)=C[C@H](Oc2c(I)cc(CO)cc2OC)[C@H]1O	Wnt5a (protein binding on small-molecule microarray)	Not satisfied
COCCOC(=O)N1C(=O)[C@@]2(c3cc(C#CC4=CCCCC4)ccc31)[C@H](C(N)=O)[C@H]1C(=O)O[C@H](c3ccccc3)[C@H](c3ccccc3)N1[C@@H]2c1ccc(O)cc1	Wnt5a (protein binding on small-molecule microarray)	Satisfied
NC(=O)[C@@]1(Cc2ccccc2)N=C(c2ccc(OCCCO)cc2)O[C@H]1c1ccccc1	Wnt5a (protein binding on small-molecule microarray)	Satisfied
C=CCN1C(=O)[C@]2(Cc3ccccc3)N=C(c3ccc(OCCCO)cc3)O[C@@H]2c2ccccc21	Wnt5a (protein binding on small-molecule microarray)	Satisfied
C=CCC(OC(C)=O)[C@@H]1[C@@H](N(Cc2ccc(-c3ccccc3)cc2)C(=O)Cc2ccc(F)cc2)c2cc(OCCCO)ccc2N1C(=O)c1ccc2ccccc2c1 (stereo partly specified)	Wnt5a (protein binding on small-molecule microarray)	Not satisfied
O=C(NC1CC1)[C@@H]1c2ccccc2C(=O)N(Cc2cc(F)cc(C(F)(F)F)c2)[C@H]1c1ccc(CO)cc1	Wnt5a (protein binding on small-molecule microarray)	Satisfied

Q. Does the reported composite z-score for COC(=O)c1c(CC[C@@H](CO)NC(=O)NCCc2c[nH]c3ccccc23)oc(C(=O)Cc2ccccc2)c1C(=O)OC fall at or above the 0.3 mark?
A. Not satisfied

Q. Does the reported composite z-score for CN(C)CCCC[C@@H]1NC(=O)[C@H]2C[C@@H](C(=O)NCCCCCN)[C@@H](c3cccc(OCCO)c3)N2C1=O fall at or above the 0.3 mark?
A. Satisfied

Q. Does the reported composite z-score for O=C1C2C=CC(C(O)c3c(F)cccc3Cl)N(Nc3ccccc3F)C2C(=O)N1c1ccccc1 (stereo unspecified) fall at or above the 0.3 mark?
A. Not satisfied

Q. Does the reported composite z-score for O=C(O)[C@H](Cc1ccccc1)n1cc(-c2ccccc2)nn1 fall at or above the 0.3 mark?
A. Satisfied

Q. Does the reported composite z-score for [N-]=[N+]=Nc1ccccc1C[C@]1(C(=O)N2CCCCC2)COC(c2ccc(OCCCO)cc2)=N1 fall at or above the 0.3 mark?
A. Satisfied

Q. Does the reported composite z-score for COCCOC(=O)N1C(=O)[C@@]2(c3ccccc31)[C@H](C(=O)N1CCCCCCC1)[C@H]1C(=O)O[C@H](c3ccccc3)[C@H](c3ccccc3)N1[C@@H]2c1ccc(OCCO)cc1 fall at or above the 0.3 mark?
A. Satisfied

Q. Does the reported composite z-score for O=C1NC(=O)C2C1C=CC(C(O)c1ccc(I)cc1)N2Nc1ccccn1 (stereo unspecified) fall at or above the 0.3 mark?
A. Not satisfied

Q. Does the reported composite z-score for [N-]=[N+]=Nc1ccccc1[C@H]1OC(c2ccc(OCCCO)cc2)=N[C@@]1(Cc1ccccc1)C(=O)N1CCOCC1 fall at or above the 0.3 mark?
A. Not satisfied
